tested on: P388 leukemia ip, CD2F1 mice, survival T/C; assay: NCI In Vivo Anticancer Drug Screen. Data for tumor model P388 Leukemia (intraperitoneal) in CD2F1 (CDF1) mice; details: endpoint: median survival time; dose: 100.0 mg/kg/injection; schedule: Q01DX005 (ip); vehicle: Klucel (hydroxypropylcellulose) (HPC); higher = longer survival
Toxic doses and inconclusive results are not listed.
measured attribute: T/C

// known answers, use as guide
N#CCOC1OC(CO)C(O)C(O)C1O (configuration not stated) :: 99 % of control
CC1N(/N=C/c2ccccc2)C(c2ccccc2)C(c2ccccc2)N1/N=C/c1ccccc1 (configuration not stated) :: 98 % of control
Cn1c(=O)c2c(=O)n3ccccc3nc2n(C)c1=O :: 96 % of control
C=CCNC(=S)N/N=C(C)/C=C/c1ccc(OC)cc1 :: 96 % of control
O=[N+]([O-])c1ccc(Sc2nc3ccccc3[nH]2)c(Cl)c1 :: 100 % of control

Entry CC1(C(=O)O)NCCc2cc(O)c(O)cc21 (configuration not stated) ; T/C = 104 % of control

Entry CCC1(c2ccc(N)cc2)CCC(=O)NC1=O (configuration not stated) ; T/C = 100 % of control

###

test system: P388 leukemia ip, CD2F1 mice, survival T/C; assay: NCI In Vivo Anticancer Drug Screen. Data for tumor model P388 Leukemia (intraperitoneal) in CD2F1 (CDF1) mice; conditions: endpoint: median survival time; dose: 60.0 mg/kg/injection; schedule: Q01DX005 (ip); vehicle: saline; higher = longer survival
Inconclusive results and toxic doses are left out.
measured attribute: T/C

// known answers, use as guide
CCN(CC)c1cc(=O)nc2ccccn12 :: 100 % of control
CC(CN(CC(=O)O)CC(=O)O)N(CC(=O)O)CC(=O)O.[Cl][Pd][Cl] (configuration not stated) :: 94 % of control
C[N+](C)(C)N=P(O)(N[N+](C)(C)C)Oc1ccccc1 (configuration not stated) :: 95 % of control

Entry CC(=O)N(c1c(N)[nH]c(=O)n(C)c1=O)C1OC(CO)C(O)C(O)C1O (configuration not stated) ; T/C = 99 % of control

Entry CCN(CC)CC(C)(C)C(=O)/C=C/c1ccc(Cl)c(Cl)c1 ; T/C = 110 % of control

Entry CN(C)CCSc1nc2ccccc2o1 ; T/C = 105 % of control

Entry [CH3][Sb]([CH3])[O][Sb]([CH3])[CH3] ; T/C = 110 % of control

Entry CC(C(=O)O)c1ncnn1-c1ccccc1 (configuration not stated) ; T/C = 105 % of control

Entry CC(CN(C)C)C(=O)C(=Cc1ccccc1)C(=O)C(C)CN(C)C (configuration not stated) ; T/C = 100 % of control

Entry CCN(CC)[Si](C)(C)C ; T/C = 93 % of control

Entry Cn1c2ccccc2c(=O)c2c([N+](=O)[O-])ccc(NCCN)c21 ; T/C = 109 % of control

Entry O=c1[nH]c(=O)n(C2OC(CO)C(O)C2O)c(=O)[nH]1 (configuration not stated) ; T/C = 100 % of control

###

tested on: P388 leukemia ip, CD2F1 mice, survival T/C; assay: NCI In Vivo Anticancer Drug Screen. Data for tumor model P388 Leukemia (intraperitoneal) in CD2F1 (CDF1) mice; settings: endpoint: median survival time; dose: 100.0 mg/kg/injection; schedule: Q01DX001 (ip); vehicle: Klucel (hydroxypropylcellulose) (HPC); higher = longer survival
Toxic doses and inconclusive results are not listed.
Entries and their T/C values follow.

CCn1c(Cl)c(/C=N/NC(N)=S)c2cc(/C=N/NC(N)=S)ccc21 :: 98 % of control

Entry CN1CCC(O)(c2nccc3ccccc23)CC1 ; T/C = 96 % of control

Entry Cc1ccc(S(=O)(=O)N/N=C\c2c(-c3ccc(Cl)cc3)nc3sccn23)cc1 ; T/C = 93 % of control

Entry ClCc1nnc2cccc(Cl)n12 ; T/C = 102 % of control

Entry CCC1C(=O)OCc2c1cc1n(c2=O)CCC1 (stereo unspecified) ; T/C = 106 % of control

Entry CNC(=O)OCCC(OC(=O)NC)C1CCC2C3CCC4CC(OC(=O)NC)CCC4(C)C3CCC12C (stereo unspecified) ; T/C = 108 % of control

Entry COc1cc(OC)c2c(c1)C(=O)[C@]1(C)C3(C)OC(=O)C(c4ccccc43)[C@]21C (stereo partly specified) ; T/C = 102 % of control

Entry Cc1ccc2c(c1)nc(N)n2N ; T/C = 100 % of control

Entry O=C1CCCC2OC3CCCC(=O)C3C(c3ccccc3)C12 (stereo unspecified) ; T/C = 90 % of control

Entry COc1ccc(N=Nc2c(O)n(-c3ccccc3Cl)c(=S)n(-c3ccc(C)cc3)c2=O)cc1 ; T/C = 105 % of control

Entry COc1nccn2c(C)nnc12 ; T/C = 100 % of control

###

tested on: P388 leukemia ip, CD2F1 mice, survival T/C; assay: NCI In Vivo Anticancer Drug Screen. Data for tumor model P388 Leukemia (intraperitoneal) in CD2F1 (CDF1) mice; details: endpoint: median survival time; dose: 100.0 mg/kg/injection; schedule: Q04DX003 (ip); vehicle: saline; higher = longer survival
Toxic doses and inconclusive results are not listed.
measured attribute: T/C

// known answers, use as guide
Cc1ncc(C[n+]2cccc(CCO)c2C)c(N)n1 :: 103 % of control
O=C(CN1CCCCC1)c1c(-c2ccccc2)[nH]c2ccccc12 :: 108 % of control

Entry COc1ccc([N+](=O)[O-])c(C#N)c1 ; T/C = 98 % of control

Entry Nc1ncnc2[nH]c(=O)[nH]c12 ; T/C = 104 % of control

Entry O=[N+]([O-])O.[Al] ; T/C = 90 % of control

Entry [NH-]c1ccccc1[S-].[NH-]c1ccccc1[S-].[Zn] ; T/C = 98 % of control

Entry NC(=O)CSc1nnc2ccccn12 ; T/C = 100 % of control

###

tested on: P388 leukemia ip, CD2F1 mice, survival T/C; experiment: NCI In Vivo Anticancer Drug Screen. Data for tumor model P388 Leukemia (intraperitoneal) in CD2F1 (CDF1) mice; conditions: endpoint: median survival time; dose: 200.0 mg/kg/injection; schedule: Q01DX005 (ip); vehicle: saline with Tween-80; higher = longer survival
Inconclusive results and toxic doses are left out.
Entries and their T/C values follow.

// known answers, use as guide
O=C(CN1C(=O)c2cccc3c(Br)ccc(c23)C1=O)c1ccc(Cl)cc1 :: 90 % of control
N=C(N)c1ccc(NN=Nc2cccc3c2Oc2ccccc2O3)cc1 :: 95 % of control
CC(Cc1ccccc1)NC(=O)c1ccncc1 (stereo unspecified) :: 100 % of control
O=S(=O)(O)c1cc2nonc2c2ccccc12 :: 95 % of control
Clc1ccccc1-c1nnc(-c2cccc(-c3nnc(-c4ccccc4Cl)s3)c2)s1 :: 90 % of control

Entry ON(CCc1ccncc1)CCc1ccncc1 ; T/C = 100 % of control

###

Entries and their T/C values follow.
System: P388 leukemia ip, CD2F1 mice, survival T/C
Experiment: NCI In Vivo Anticancer Drug Screen. Data for tumor model P388 Leukemia (intraperitoneal) in CD2F1 (CDF1) mice
Details: endpoint: median survival time; dose: 50.0 mg/kg/injection; schedule: Q01DX009 (ip); vehicle: Klucel (hydroxypropylcellulose) (HPC); higher = longer survival
Procedure: The antitumor activity of compounds was measured in mice bearing transplantable tumors. Survival or tumor size were measured and the results are expressed as the measurement made in the treated group (T) divided by the measurement made in the vehicle treated control group (C). The tumor model used in this assay is P388 Leukemia (intraperitoneal) in CD2F1 (CDF1) mice
Inconclusive results and toxic doses are left out.

// known answers, use as guide
N#Cc1nc2c(nc1N)CCCCCCCCCC2 :: 94 % of control
O=[N+]([O-])c1cccc(C=Nc2ccc(/C=C/C3(CCl)OCCO3)cc2)c1 :: 98 % of control
COc1ccc(NC(=S)Nc2ccc(S(=O)(=O)N3CCCCC3)cc2)cc1 :: 94 % of control
CSc1cccc(NC(=O)OCCOc2ccc([N+](=O)[O-])cc2)c1 :: 98 % of control
COC(=O)c1ccn2c1CCC2 :: 91 % of control
CN(C)C(=O)N1CCc2ccc([N+](=O)[O-])cc21 :: 104 % of control
Cc1cc(=O)n2c(nc3cc(C)c(C)cc32)s1 :: 103 % of control
S=c1nc[nH]c2nc[nH]c12 :: 123 % of control
Cc1cc(C)nc(NS(=O)(=O)c2ccc(NC(=O)Nc3cc(F)ccc3F)cc2)n1 :: 96 % of control
CSc1cccc(NC(=O)OCCOc2ccc(Cl)c(C)c2)c1 :: 92 % of control

Entry C/C=C(\C)C(=O)OC1C(O)C(C)(C)C2C3C(=O)C=C(C)C2C3(C)C1OC(=O)/C(C)=C/C (configuration not stated) ; T/C = 103 % of control

Entry CNS(=O)(=O)c1cc([N+](=O)[O-])c(N2CCCCC2)c([N+](=O)[O-])c1 ; T/C = 100 % of control
